Answer each item with its documented IC50.
Test system: panel of solid and haemotological tumor cell lines
Test: MTS cell proliferation assay (cytotoxicity)
Format: cell-based
Details: 72 hours incubation, MTS readout
Experimental: MTS Cell Proliferation Assay The anti-proliferation effect of MCT inhibition was investigated across a panel of solid and haemotological tumor cell lines. Cells were routinely cultured in their appropriate growth medium. On day 1, between 5,000-20,000 cells/well were plated into 96-well plates. […] The absorbance of the plates was read on a Synergy H4 plate reader using […] measurement wavelength. Dose response curves were plotted and IC50 values were calculated using GraphPrism. […]

// worked examples, IC50 included
>  <Molecule>
CN(Cc1ccc(F)cc1)c1cc2oc(=O)c(C(=O)O)cc2s1 [Example 2]

>  <Target or system>
panel of solid and haemotological tumor cell lines

>  <Recorded result>
< 1 µM

$$$$
>  <Molecule>
COc1ccccc1C(=O)N(C)c1cc2oc(=O)c(C(=O)O)cc2s1 [Example 17]

>  <Target or system>
panel of solid and haemotological tumor cell lines

>  <Recorded result>
< 1 µM

$$$$
>  <Molecule>
CN(Cc1ccccc1)c1cc2oc(=O)c(C(=O)O)cc2s1 [Example 1]

>  <Target or system>
panel of solid and haemotological tumor cell lines

>  <Recorded result>
< 1 µM

$$$$

Next molecule, please.
Value of IC50 reported for the molecule COc1cccc(C(=O)N(C)c2cc3oc(=O)c(C(=O)O)cc3s2)c1 [Example 9] is < 1 µM

Measured values drawn from patent US20230192718A1 for this set.
